The measurements presented in this section are drawn from patent US11766628B2.

I'd be grateful if you could share measured Partition coefficient for these entries.
protocol_notes: Partition of cannabinoids between degummed cannabis oil miscella and water/ethanol/base extraction solvent in a fiber conduit contactor
Format: physicochemical
Parameters: scale not given here
measurement_setup: Base Na2CO3; H2O/EtOH/Base (wt %) 73.2/24.2/2.6
Give bare numbers.

| compound | test_readout | data_value |
| --- | --- | --- |
| CCCCCc1cc(O)c(C/C=C(\C)CCC=C(C)C)c(O)c1C(=O)O [CBGA, cannabigerolic acid] | Partition coefficient | −0.47 |
| CCCCCc1cc(O)c2c(c1)OC(C)(C)[C@@H]1CCC(C)=C[C@@H]21 [THC, tetrahydrocannabinol, reference compound] | Partition coefficient | 0.2 |
| CCCCCc1cc(O)c(C/C=C(\C)CCC=C(C)C)c(O)c1 [CBG, cannabigerol] | Partition coefficient | 1.6 |

Turning now to a further record.
Partition coefficient for CCCCCc1cc2c(c(O)c1C(=O)O)C=CC(C)(CCC=C(C)C)O2 (stereo not shown) [CBCA, cannabichromenic acid] ?
1.09

---

protocol_notes: Partition of cannabinoids between degummed cannabis oil miscella and water/ethanol/base extraction solvent in a fiber conduit contactor
Assay type: physicochemical
Set-up: scale not given here
measurement_setup: Base NaHCO3; H2O/EtOH/Base (wt %) 77.9/19.6/2.5
test_readout: Partition coefficient
One number for each entry.

Previously resolved entries follow.
| compound | Partition coefficient |
| --- | --- |
| C=C(C)[C@@H]1CCC(C)=C[C@H]1c1c(O)cc(CCCCC)cc1O [CBD, cannabidiol, reference compound] | 1.29 |
| CCCCCc1cc(O)c2c(c1)OC(C)(C)[C@@H]1CCC(C)=C[C@@H]21 [THC, tetrahydrocannabinol, reference compound] | 1.43 |
| CCCCCc1cc2c(c(O)c1C(=O)O)[C@@H]1C=C(C)CC[C@H]1C(C)(C)O2 [THCA, tetrahydrocannabinolic acid] | 1.33 |
| CCCCCc1cc(O)c2c(c1)OC(C)(CCC=C(C)C)C=C2 (stereo not drawn) [CBC, cannabichromene] | 1.42 |
| CCCCCc1cc(O)c(C/C=C(\C)CCC=C(C)C)c(O)c1C(=O)O [CBGA, cannabigerolic acid] | 1.2 |

Turning now to a further record.
Partition coefficient for C=C(C)[C@@H]1CCC(C)=C[C@H]1c1c(O)cc(CCCCC)c(C(=O)O)c1O [CBDA, cannabidiolic acid] ?
1.09

---

protocol_notes: Partition of cannabinoids between degummed cannabis oil miscella and water/ethanol/base extraction solvent in a fiber conduit contactor
Type: physicochemical
Set-up: scale not given here
measurement_setup: Base K2CO3; H2O/EtOH/Base (wt %) 82.8/14.7/2.5
Excerpt: Degummed miscella from Example 1A were used to investigate the extraction of acid cannabinoids into a water/ethanol solvent using a fiber conduit contactor. Bases tested included sodium bicarbonate (NaHCO3), sodium carbonate (Na2CO3), potassium bicarbonate (KHCO3), and potassium carbonate (K2CO3). […] In Table 3 above, the Examples are ordered by decreasing polarity from top to bottom. […] Blank squares are where coefficients could not be calculated.
I'd be grateful if you could share measured Partition coefficient for these entries.
Numbers only.

| compound | Partition coefficient |
| --- | --- |
| CCCCCc1cc(O)c2c(c1)OC(C)(CCC=C(C)C)C=C2 (stereo not shown) [CBC, cannabichromene] | 0.23 |
| CCCCCc1cc2c(c(O)c1C(=O)O)[C@@H]1C=C(C)CC[C@H]1C(C)(C)O2 [THCA, tetrahydrocannabinolic acid] | −0.05 |
| C=C(C)[C@@H]1CCC(C)=C[C@H]1c1c(O)cc(CCCCC)c(C(=O)O)c1O [CBDA, cannabidiolic acid] | −0.08 |

Partition coefficient for CCCCCc1cc(O)c(C/C=C(\C)CCC=C(C)C)c(O)c1 [CBG, cannabigerol] ?
0.05
